# system tested: rat 5HT transporter (rSERT) (Rattus norvegicus, UniProt P31652)
# Sequence (P31652 whole entry): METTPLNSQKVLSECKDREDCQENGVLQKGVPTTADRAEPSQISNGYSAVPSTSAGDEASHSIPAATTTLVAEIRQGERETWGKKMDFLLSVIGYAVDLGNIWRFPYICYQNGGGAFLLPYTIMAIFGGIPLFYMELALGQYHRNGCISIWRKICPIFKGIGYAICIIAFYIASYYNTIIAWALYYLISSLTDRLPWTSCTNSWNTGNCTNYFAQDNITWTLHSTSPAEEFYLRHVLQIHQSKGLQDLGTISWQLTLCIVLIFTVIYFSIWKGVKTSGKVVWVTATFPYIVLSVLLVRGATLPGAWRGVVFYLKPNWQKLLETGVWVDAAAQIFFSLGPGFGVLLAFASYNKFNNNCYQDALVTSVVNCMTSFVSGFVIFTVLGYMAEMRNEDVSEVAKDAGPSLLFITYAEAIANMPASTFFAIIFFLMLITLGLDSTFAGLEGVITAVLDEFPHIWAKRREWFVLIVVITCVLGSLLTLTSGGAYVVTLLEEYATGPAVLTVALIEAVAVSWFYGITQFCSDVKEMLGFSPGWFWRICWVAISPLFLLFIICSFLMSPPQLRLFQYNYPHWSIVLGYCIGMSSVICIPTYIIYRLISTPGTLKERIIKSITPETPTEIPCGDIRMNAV
# measurement description: [3H]5HT transport assay in HeLa cells transfected with BS4E-10 cDNA (rSERT)
pKi: −log10 of the molar value.
assay endpoint: pKi

Field: example entries. Status: answers known.
molecule="NCCc1ccc(O)c(O)c1 [Dopamine, dopamine]" system_tested="rat 5HT transporter (rSERT) (Rattus norvegicus, UniProt P31652)" measured_result="< 5.00"
molecule="OC1(c2ccc(Cl)cc2)c2ccccc2C2=NCCN21 (stereo not shown) [mazindol]" system_tested="rat 5HT transporter (rSERT) (Rattus norvegicus, UniProt P31652)" measured_result=5.00
molecule="NCCc1c[nH]cn1 [histamine]" system_tested="rat 5HT transporter (rSERT) (Rattus norvegicus, UniProt P31652)" measured_result="< 5.00"

Challenge: Quick one: pKi of NC[C@H](O)c1ccc(O)c(O)c1 [noradrenaline] ?
Response given: < 5.00
